All values here come from paper PMC7312911.

- Tested on: anti-HSA affibody
- Assay Summary: Affibody binding/elution in non-competitive conditions on peptide–Toyopearl, anti-HSA affibody
- Protocol Conditions: 100 μL of 50:50 labeled anti-HSA and anti-IgG affibodies, total 1 mg/mL, in PBS pH 7.4; 50 μL resin; 1 h, room temperature; elution 0.2 M acetate pH 3.8; fluorescence spectroscopy
Measurement Name: mFT/mE (Anti-HSA), flow-through elution mass ratio

Take a look at these entries with their results.
DIRIIR ... 1.553
DHHKKA ... 2.039
ARISRQ ... 1.709
QAAKRI ... 0.801

1 = KSAYHS
2 = DIHIRR
3 = SHHSQR
4 = DIRIQR
Exercise: Put the items in sequence by mFT/mE (Anti-HSA), flow-through elution mass ratio, from largest down. Answer with the labels in sequence, matching the requested order.
Solution: 4, 3, 1, 2

====

- System: 1:1 solution of AF594-labeled anti-HSA affibody and AF488-labeled anti-IgG affibody
- Assay Summary: Affibody binding/elution in non-competitive conditions on peptide–Toyopearl, affibody mixture
- Protocol Conditions: non-competitive (pure affibody), PBS pH 7.4; 1 h, room temperature; elution pH 3.8; fluorescence spectroscopy
- Experimental: Ten peptides selected by sequence homology, namely, ARISRQ, IGKQRI, DIRIIR, QAAKRI, SHHSQR, DIHIRR, DHHKKA, DIRIQR, KSAYHS, and IHQRGQ, were tested as ligand candidates through binding studies in non-competitive conditions (pure affibody). […] The identified sequences were synthesized on Toyopearl AF-Amino 650 M resin by Fmoc/tBu synthesis to be tested for affibody binding in non-competitive mode. […] Finally, both UB and E fractions were diluted in PBS and analyzed by fluorescence spectroscopy.
Measurement Name: Yield (mass of affibody eluted vs. mass of bound affibody) (%)

Take a look at these entries with their results.
SHHSQR ... 44.3
DIHIRR ... 40.4
DHHKKA ... 38.5
DIRIQR ... 39.5

I = QAAKRI
II = ARISRQ
Exercise: Problem: Given the entries I and II , determine which has the lower reported Yield (mass of affibody eluted vs. mass of bound affibody). Return value: the label identifying the chosen record.
Solution: I
(I: 35%, II: 51.7%)

====

Recovery, anti-HSA affibody by entry:
- System: anti-HSA affibody
- Assay Summary: Affibody purification in competitive conditions (clarified E. coli cell lysate), anti-HSA affibody
- Assay type: binding
- Protocol Conditions: 0.4 mg/mL affibody and 2 mg/mL E. coli HCPs, 200 μL feed, room temperature; elution pH 3.8; eluted vs. loaded amount, fluorescence spectroscopy
- Protocol: The adsorbents IGKQRI–GSG–Toyopearl, IHQRGQ–GSG–Toyopearl, KSAYHS–GSG–Toyopearl, and DIRIIR–GSG–Toyopearl resins were utilized to evaluate the ability of the selected sequences to purify affibody molecules from complex sources. […] The unbound (UB) and elution (EL) fractions were analyzed by fluorescence spectroscopy and SDS-PAGE (Figure 1) to determine the values of recovery and purity for both affibody products (Table 3). […]
Where no end group is shown, it is not given here.

IGKQRI [IGKQRI] ... 95.2% ± 4.6%
KSAYHS ... 89.5% ± 0.7%
DIRIIR ... 74.9% ± 3.6%

Exercise: Please report the measured Recovery, anti-HSA affibody for `IHQRGQ` tested on anti-HSA affibody.
Solution: 96.1% ± 2.4%
